Listed below: Potency values for each entry.
# study_system: Rap guanine nucleotide exchange factor 4 (Homo sapiens) (UniProt Q8WZA2)
# Sequence (Q8WZA2 whole entry, looked up): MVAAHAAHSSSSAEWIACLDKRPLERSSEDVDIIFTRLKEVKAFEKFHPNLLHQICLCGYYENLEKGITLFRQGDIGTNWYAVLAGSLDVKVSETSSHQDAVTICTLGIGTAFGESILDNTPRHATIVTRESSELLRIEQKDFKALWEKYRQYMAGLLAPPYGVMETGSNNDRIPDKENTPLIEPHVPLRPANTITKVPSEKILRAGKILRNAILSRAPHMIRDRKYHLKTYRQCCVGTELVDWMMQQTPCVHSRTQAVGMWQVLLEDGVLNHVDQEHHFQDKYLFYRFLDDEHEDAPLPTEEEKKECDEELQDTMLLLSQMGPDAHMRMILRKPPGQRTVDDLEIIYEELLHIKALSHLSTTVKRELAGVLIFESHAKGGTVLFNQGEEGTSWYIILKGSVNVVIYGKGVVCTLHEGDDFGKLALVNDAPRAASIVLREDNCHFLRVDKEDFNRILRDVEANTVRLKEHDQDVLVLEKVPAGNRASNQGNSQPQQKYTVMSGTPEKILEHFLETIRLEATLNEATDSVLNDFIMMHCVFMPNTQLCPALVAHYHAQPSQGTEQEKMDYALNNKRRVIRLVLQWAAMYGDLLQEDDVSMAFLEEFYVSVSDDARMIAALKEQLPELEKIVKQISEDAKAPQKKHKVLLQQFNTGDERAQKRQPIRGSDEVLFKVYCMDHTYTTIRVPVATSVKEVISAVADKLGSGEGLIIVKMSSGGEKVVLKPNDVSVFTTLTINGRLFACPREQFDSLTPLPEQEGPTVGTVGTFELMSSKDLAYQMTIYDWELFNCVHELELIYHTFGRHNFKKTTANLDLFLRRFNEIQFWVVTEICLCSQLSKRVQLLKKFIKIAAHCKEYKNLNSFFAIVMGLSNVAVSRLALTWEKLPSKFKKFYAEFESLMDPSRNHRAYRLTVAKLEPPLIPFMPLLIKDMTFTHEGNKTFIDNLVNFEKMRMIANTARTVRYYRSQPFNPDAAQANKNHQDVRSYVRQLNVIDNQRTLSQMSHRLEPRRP
# assay_summary: Confirmatory qHTS for agonist of cAMP-regulated guanine nucleotide exchange factor 4 (EPAC2) (AID 1645884);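 further: nucleotide exchange releases bodipy-GDP from Rap1 and this lowers its fluorescence; potency means the concentration at half of the fitted maximal effect; nearly all actives have a fitted effect of over 65% in size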
# assay_conditions: EPAC2 GEF activity, Rap1B-BODIPY-GDP fluorescence; series mostly up to 154 µM
Records with an inconclusive call do not appear. Active and inactive are the calls of the source. The call rests on the fitted dose curve; in most records, active means well fitted activation curve with a large enough effect; inconclusive means small, poorly fitted or top-dose-only effect; inactive means no such curve, though single readings can be large or run the other way.

{"compound": "CC(=NNC(=O)c1ccncc1)c1ccc2ccccc2c1O", "Potency": "112 µM (active)"}
{"compound": "CCn1c(O)c(/C=N/NC(=O)c2ccncc2)c(=O)n(CC)c1=S", "Potency": "25.1 µM (active)"}
{"compound": "COc1ccc2noc3c2c1C(=O)c1ccccc1-3", "Potency": "112 µM (active)"}
{"compound": "COc1ccc(S(=O)(=O)/N=C2\\C=C(NS(=O)(=O)c3ccccc3)C(=O)c3ccccc32)cc1", "Potency": "100 µM (active)"}
{"compound": "CC(=O)Nc1ccc(N2C(=O)c3cccc4c(O)ccc(c34)C2=O)cc1", "Potency": "112 µM (active)"}
{"compound": "N=C1/C(=C\\c2coc3ccc(O)cc3c2=O)C(=O)N=C2SC=CN12", "Potency": "112 µM (active)"}
{"compound": "CN1CCS/C1=C\\C=C1/SC(=S)N(CC(=O)O)C1=O", "Potency": "79.4 µM (active)"}
{"compound": "COCCN1C(=O)/C(=C/c2ccc(N3CCCC3)cc2)SC1=S", "Potency": "112 µM (active)"}
{"compound": "COc1ccc(OC)c(/C=C/c2nc3ccccc3nc2C)c1", "Potency": "79.3 µM (active)"}
{"compound": "N=C1/C(=C\\c2ccc(-c3cccc(C(=O)O)c3)o2)C(=O)N=C2SC=C(c3ccccc3)N12", "Potency": "100 µM (active)"}
{"compound": "O=C(OCCN1C(=O)c2cccc3c(N4CCOCC4)ccc(c23)C1=O)c1cccc(Cl)c1", "Potency": "100 µM (active)"}
{"compound": "CCN(CC)c1ccc2cc(C(C)=O)c(=O)oc2c1", "Potency": "100 µM (active)"}
{"compound": "CCOc1ccc2c(ccc(/C=C/c3cc(C)c4cccnc4c3O)[n+]2C)c1", "Potency": "70.8 µM (active)"}
{"compound": "CCN1C(=O)c2cccc3c(N)ccc(c23)C1=O", "Potency": "100 µM (active)"}
{"compound": "CCN(CC)CCCC(C)n1c2nc(=O)[nH]c(=O)c-2nc2cc(Cl)ccc21 (stereo not drawn)", "Potency": "100 µM (active)"}
{"compound": "Oc1ccc2ccc3cccc[n+]3c2c1", "Potency": "100 µM (active)"}
{"compound": "Nc1ccc2cc3[nH]c4cc(N)ccc4c3nc2c1", "Potency": "100 µM (active)"}
{"compound": "O=C1CCNc2ccc(-c3ccccc3)cc21", "Potency": "112 µM (active)"}
{"compound": "O=C(NCc1ccc(F)cc1)c1cccc2c1C(=O)c1ccc(N3CCOCC3)cc1S2(=O)=O", "Potency": "89.1 µM (active)"}
{"compound": "CCOC(=O)[C@H]1[C@H]2COc3ccc(C)cc3[C@@H]2N2C(=O)c3ccc(C)cc3NC(=O)[C@@]12C", "Potency": "112 µM (active)"}
{"compound": "CCCN1C(=O)c2cccc3c(N4CCCCC4)ccc(c23)C1=O", "Potency": "100 µM (active)"}
{"compound": "CC(=O)Nc1ccc(Nc2c3c4c(cccc4n(C)c2=O)C(=O)c2ccccc2-3)cc1", "Potency": "100 µM (active)"}
{"compound": "Cc1n[nH]c(C)c1N1C(=O)c2cccc3c(N4CCCCCC4)ccc(c23)C1=O", "Potency": "112 µM (active)"}
{"compound": "CC(=O)c1ccc(N2CCN(C(=O)/C=C/c3ccc4ccccc4n3)CC2)cc1", "Potency": "89.1 µM (active)"}
{"compound": "Cc1nc2ccccc2n2c(O)c(CC(=O)O)cc12", "Potency": "112 µM (active)"}
{"compound": "CN(C)c1ccc(/C=C2\\SC(=S)N(Nc3ncc(C(F)(F)F)cc3Cl)C2=O)cc1", "Potency": "112 µM (active)"}
{"compound": "COc1ccccc1NC(=O)/C(C#N)=C/c1cc([N+](=O)[O-])ccc1N1CCCC1", "Potency": "112 µM (active)"}
{"compound": "CN(C)c1ccc(C(=O)/C=C/c2ccc(Br)cc2)cc1", "Potency": "112 µM (active)"}
{"compound": "Cc1ccc2oc(=O)c(/C=C(\\O)c3ccco3)nc2c1", "Potency": "100 µM (active)"}
{"compound": "CC(NC(=O)/C(C#N)=C/c1ccc(N2CCOCC2)cc1)c1ccccc1 (stereo not drawn)", "Potency": "112 µM (active)"}
{"compound": "CNc1ccc2c3c(cccc13)C(=O)N(C)C2=O", "Potency": "112 µM (active)"}
{"compound": "CCOC(=O)/C(C#N)=C\\c1ccc(N2CCN(C/C=C/c3ccccc3)CC2)cc1", "Potency": "100 µM (active)"}
{"compound": "CSC1=NSC2=NC(=O)/C(=C\\c3coc4ccccc4c3=O)C(=N)N12", "Potency": "100 µM (active)"}
{"compound": "Nc1ccc2c3c(cccc13)C(=O)N(c1ccccc1)C2=O", "Potency": "100 µM (active)"}
{"compound": "O=C(N/N=C/c1cccnc1)c1cc(-c2ccccc2OCc2ccccc2)n[nH]1", "Potency": "89.1 µM (active)"}
{"compound": "CC1CCN(c2ccc3c(c2)S(=O)(=O)c2cccc(C(=O)NCc4cccc(F)c4)c2C3=O)CC1", "Potency": "112 µM (active)"}
{"compound": "CCN(CC)c1ccc2cc(-c3nnc(-c4ccncc4)o3)c(=O)oc2c1", "Potency": "100 µM (active)"}
{"compound": "Cc1ccc(N2C(=O)c3cccc4c(N)ccc(c34)C2=O)c2cccnc12", "Potency": "112 µM (active)"}
{"compound": "O=C1c2ccccc2S(=O)(=O)c2cc(N3CCC(C(=O)N4CCCCC4)CC3)ccc21", "Potency": "100 µM (active)"}
{"compound": "Cc1ccc[n+](-c2nc([O-])sc2C=O)c1", "Potency": "100 µM (active)"}
{"compound": "NC(=O)c1c(NC(=O)c2ccccc2)sc2c1CCN(Cc1ccccc1)C2", "Potency": "112 µM (active)"}
{"compound": "Nc1ccc(-c2c3ccc(=O)cc-3oc3cc(O)ccc23)cc1C(=O)O", "Potency": "100 µM (active)"}
{"compound": "COc1ccc(/C(O)=C/c2nc3ccccc3n(-c3ccccc3)c2=O)cc1", "Potency": "100 µM (active)"}
